- PROTOCOL_DETAILS: Phase 1 single-dose plasma pharmacokinetics in subjects with normal hepatic function, mild or moderate hepatic impairment
- Format: in vivo, human
- COND: human, plasma, oral, 200 mg, Mild vs Normal: Mild hepatic impairment; paired analysis; read-out: Cmax, Geometric Least Squares Mean, Test
ENDPOINT: Cmax

What does the record list as Cmax for N#CC1(c2ccc(NC(=O)c3cccnc3NCc3ccncc3)cc2)CCCC1 [Rivoceranib] ?
182 ng/mL

---

- PROTOCOL_DETAILS: Phase 1 single-dose plasma pharmacokinetics in subjects with normal hepatic function, mild or moderate hepatic impairment
- Type: in vivo, human
- COND: human, plasma, po, 200 mg, Mild Hepatic Impairment; 4 h; 200 mg single oral dose; read-out: Plasma concentration, Median
ENDPOINT: concentration at 4 h (ng/mL)
The reply should contain only the number, in ng/mL.

// returns reported concentration at 4 h for input N#CC1(c2ccc(NC(=O)c3cccnc3NCc3ccncc3)cc2)CCCC1
95.8
